The values you see were collected from patent US7763615B2.

# Tested on: LNCAP
# PROCEDURE_DETAILS: cells
# Format: cell-based
# TEST_SETTINGS: LNCAP
# Text: The finality of these assays is to interrupt the growth of a “in vitro” tumor cell culture by means of a continued exhibition of the cells to the sample to be testing. A colorimetric type of assay, using sulphorhodamine B (SRB) reaction has been adapted for a quantitative measurement of cell growth and viability [following the technique described by Philip Skehan, et al. (1990), New colorimetric cytotoxicity assay for anticancer drug screening, J. Natl. Cancer Inst., 82:1107-1112] […]
Readings of TGI for the listed molecules

MOLECULE	TGI
COc1c(C)cc2c(c1OC(=O)OC(C)(C)C)[C@@H]1C3[C@@H]4SC[C@]5(NCCc6c5[nH]c5ccccc65)C(=O)COC[C@@H](c5c6c(c(C)c(OC(C)=O)c54)OCO6)N3[C@@H](O)[C@H](C2)N1C (stereo partly shown)	3.25E−09
COc1c(C)cc2c(c1O)[C@@H]1C3[C@@H]4SC[C@]5(NC(C)Cc6c5[nH]c5ccccc65)C(=O)COC[C@@H](c5c6c(c(C)c(OC(C)=O)c54)OCO6)N3[C@@H](O)[C@H](C2)N1C (stereo partly shown) [Compound 43]	3.76E−09
C=COC(=O)Oc1c(OC)c(C)cc2c1[C@@H]1C3[C@@H]4SC[C@]5(NCCc6c5[nH]c5ccccc65)C(=O)COC[C@@H](c5c6c(c(C)c(OC(C)=O)c54)OCO6)N3[C@@H](O)[C@H](C2)N1C (stereo partly shown)	5.08E−09
COc1c(C)cc2c(c1O)[C@@H]1C3[C@@H]4SC[C@]5(NC(C)Cc6c5[nH]c5ccccc65)C(=O)COC[C@@H](c5c6c(c(C)c(OC(C)=O)c54)OCO6)N3[C@@H](O)[C@H](C2)N1C (stereo partly shown) [Compound 44]	8.84E−09

====

# key: entry, value: Skeletal
# Tested on: L8, normal rat skeletal muscle cells
# TEST_SETTINGS: 24 h

MOLECULE	Skeletal
COc1c(C)cc2c(c1O)[C@@H]1C3[C@@H]4SC[C@]5(NC(C)Cc6c5[nH]c5ccccc65)C(=O)COC[C@@H](c5c6c(c(C)c(OC(C)=O)c54)OCO6)N3[C@@H](O)[C@H](C2)N1C (stereo partly drawn) [Compound 43]	1.60E−07
COc1c(C)cc2c(c1O)[C@@H]1C3[C@@H]4SC[C@]5(NC(C)Cc6c5[nH]c5ccc(F)cc65)C(=O)COC[C@@H](c5c6c(c(C)c(OC(C)=O)c54)OCO6)N3[C@@H](O)[C@H](C2)N1C (stereo partly drawn) [Compound 41]	2.39E−07
COc1c(C)cc2c(c1O)[C@@H]1C3[C@@H]4SC[C@]5(NCCc6c5[nH]c5c(C)cccc65)C(=O)COC[C@@H](c5c6c(c(C)c(OC(C)=O)c54)OCO6)N3[C@@H](O)[C@H](C2)N1C (stereo partly drawn)	2.71E−08
COc1c(C)cc2c(c1O)[C@@H]1C3[C@@H]4SC[C@]5(NC(C)Cc6c5[nH]c5ccccc65)C(=O)COC[C@@H](c5c6c(c(C)c(OC(C)=O)c54)OCO6)N3[C@@H](O)[C@H](C2)N1C (stereo partly drawn) [Compound 44]	4.02E−08
COc1c(C)cc2c(c1O)[C@@H]1C3[C@@H]4SC[C@]5(C(=O)COC[C@@H](c6c7c(c(C)c(OC(C)=O)c64)OCO7)N3[C@@H](O)[C@H](C2)N1C)c1[nH]c2ccccc2c1CCN5C (stereo partly drawn) [Compound 39]	4.58E−07
COc1c(C)cc2c(c1O)[C@@H]1C3[C@@H]4SC[C@]5(NCCc6c5[nH]c5ccccc65)C(=O)COC[C@@H](c5c6c(c(C)c(OC(C)=O)c54)OCO6)N3[C@@H](O)[C@H](C2)N1C (stereo partly drawn)	3.71E−08
COc1c(C)cc2c(c1O)[C@@H]1C3[C@@H]4SC[C@]5(NC(C)Cc6c5[nH]c5ccc(O)cc65)C(=O)COC[C@@H](c5c6c(c(C)c(OC(C)=O)c54)OCO6)N3[C@@H](O)[C@H](C2)N1C (stereo partly drawn) [Compound 38]	1.29E−08
COc1c(C)cc2c(c1O)[C@@H]1C3[C@@H]4SC[C@]5(NCCc6c5[nH]c5ccc(C)cc65)C(=O)COC[C@@H](c5c6c(c(C)c(OC(C)=O)c54)OCO6)N3[C@@H](O)[C@H](C2)N1C (stereo partly drawn)	2.51E−08
COc1c(C)cc2c(c1O)[C@@H]1C3[C@@H]4SC[C@]5(C(=O)COC[C@@H](c6c7c(c(C)c(OC(C)=O)c64)OCO7)N3[C@@H](O)[C@H](C2)N1C)c1[nH]c2ccccc2c1CCN5C (stereo partly drawn) [Compound 40]	2.11E−07

====

# Test system: MEL-28
# PROCEDURE_DETAILS: cells
# Assay type: cell-based
# TEST_SETTINGS: Homo sapiens, SK-MEL-28, 48 h, MEL-28, 48 hours exposure, SRB
The label y is reserved for IC (TGI) strictly under 4 nM; n covers values equal to or above it.

COMPOUND	QUALITATIVE_LABEL
COc1c(C)cc2c(c1O)[C@@H]1C3[C@@H]4SC[C@]5(C(=O)COC[C@@H](c6c7c(c(C)c(OC(C)=O)c64)OCO7)N3[C@@H](C#N)[C@H](C2)N1C)c1[nH]c2ccccc2c1CCN5C (some centres unmarked) [Compound 14]	n
COc1c(C)cc2c(c1O)[C@@H]1C3[C@@H]4SC[C@]5(NCCc6c5[nH]c5ccc(OCc7ccccc7)cc65)C(=O)COC[C@@H](c5c6c(c(C)c(OC(C)=O)c54)OCO6)N3[C@@H](O)[C@H](C2)N1C (some centres unmarked) [Compound 29]	n
COc1ccc2[nH]c3c(c2c1)CCN[C@]31CS[C@@H]2c3c(OC(C)=O)c(C)c4c(c3[C@H](COCC1=O)N1C2[C@H]2c3c(cc(C)c(OC)c3O)C[C@@H]([C@@H]1O)N2C)OCO4 (some centres unmarked) [Compound 27]	y
COc1c(C)cc2c(c1O)[C@@H]1C3[C@@H]4SC[C@]5(C(=O)COC[C@@H](c6c7c(c(C)c(OC(C)=O)c64)OCO7)N3[C@@H](O)[C@H](C2)N1C)c1[nH]c2ccc(O)cc2c1CCN5C (some centres unmarked) [Compound 33]	y
COc1c(C)cc2c(c1O)[C@@H]1C3[C@@H]4SC[C@]5(NCCc6c5[nH]c5c(C)cccc65)C(=O)COC[C@@H](c5c6c(c(C)c(OC(C)=O)c54)OCO6)N3[C@@H](O)[C@H](C2)N1C (some centres unmarked) [Compound 36]	n
COc1c(C)cc2c(c1O)[C@@H]1C3[C@@H]4SC[C@]5(NCCc6c5[nH]c5ccccc65)C(=O)COC[C@@H](c5c6c(c(C)c(OC(=O)OC(C)(C)C)c54)OCO6)N3[C@@H](C#N)[C@H](C2)N1C (some centres unmarked) [Compound 57]	n
COc1c(C)cc2c(c1O)[C@@H]1C3[C@@H]4SC[C@]5(NCCc6c5[nH]c5ccc(C)cc65)C(=O)COC[C@@H](c5c6c(c(C)c(OC(C)=O)c54)OCO6)N3[C@@H](O)[C@H](C2)N1C (some centres unmarked) [Compound 30]	y
COc1c(C)cc2c(c1O)[C@@H]1C3[C@@H]4SC[C@]5(NCCc6c5[nH]c5ccccc65)C(=O)COC[C@@H](c5c6c(c(C)c(OC(C)=O)c54)OCO6)N3[C@@H](O)[C@H](C2)N1C (some centres unmarked) [Compound 26]	n
COc1c(C)cc2c(c1O)[C@@H]1C3[C@@H]4SC[C@]5(C(=O)COC[C@@H](c6c7c(c(C)c(OC(C)=O)c64)OCO7)N3[C@@H](O)[C@H](C2)N1C)c1[nH]c2ccccc2c1CCN5C (some centres unmarked) [Compound 39]	n
COc1c(C)cc2c(c1O)[C@@H]1C3[C@@H]4SC[C@]5(NCCc6c5[nH]c5ccccc65)C(=O)COC[C@@H](c5c6c(c(C)c(OC(=O)C(F)(F)C(F)(F)C(F)(F)F)c54)OCO6)N3[C@@H](O)[C@H](C2)N1C (some centres unmarked) [Compound 62]	y
COc1c(C)cc2c(c1O)[C@@H]1C3[C@@H]4SC[C@]5(NCCc6c5[nH]c5c(OCc7ccccc7)cccc65)C(=O)COC[C@@H](c5c6c(c(C)c(OC(C)=O)c54)OCO6)N3[C@@H](O)[C@H](C2)N1C (some centres unmarked) [Compound 28]	n
C=COC(=O)Oc1c(C)c2c(c3c1[C@H]1SC[C@]4(NCCC5c6ccccc6NC54)C(=O)OC[C@@H]3N3C1[C@H]1c4c(cc(C)c(OC)c4OC(=O)OC=C)C[C@@H]([C@@H]3C#N)N1C)OCO2 (some centres unmarked) [Compound 68]	n
COc1c(C)cc2c(c1O)[C@@H]1C3[C@@H]4SC[C@]5(NC(C)Cc6c5[nH]c5ccc(O)cc65)C(=O)COC[C@@H](c5c6c(c(C)c(OC(C)=O)c54)OCO6)N3[C@@H](O)[C@H](C2)N1C (some centres unmarked) [Compound 37]	n
